These measurements were taken from ChEMBL document CHEMBL1155454.

Biological target: Dynamin-1 (Rattus norvegicus, UniProt P21575)
Sequence (P21575 whole entry): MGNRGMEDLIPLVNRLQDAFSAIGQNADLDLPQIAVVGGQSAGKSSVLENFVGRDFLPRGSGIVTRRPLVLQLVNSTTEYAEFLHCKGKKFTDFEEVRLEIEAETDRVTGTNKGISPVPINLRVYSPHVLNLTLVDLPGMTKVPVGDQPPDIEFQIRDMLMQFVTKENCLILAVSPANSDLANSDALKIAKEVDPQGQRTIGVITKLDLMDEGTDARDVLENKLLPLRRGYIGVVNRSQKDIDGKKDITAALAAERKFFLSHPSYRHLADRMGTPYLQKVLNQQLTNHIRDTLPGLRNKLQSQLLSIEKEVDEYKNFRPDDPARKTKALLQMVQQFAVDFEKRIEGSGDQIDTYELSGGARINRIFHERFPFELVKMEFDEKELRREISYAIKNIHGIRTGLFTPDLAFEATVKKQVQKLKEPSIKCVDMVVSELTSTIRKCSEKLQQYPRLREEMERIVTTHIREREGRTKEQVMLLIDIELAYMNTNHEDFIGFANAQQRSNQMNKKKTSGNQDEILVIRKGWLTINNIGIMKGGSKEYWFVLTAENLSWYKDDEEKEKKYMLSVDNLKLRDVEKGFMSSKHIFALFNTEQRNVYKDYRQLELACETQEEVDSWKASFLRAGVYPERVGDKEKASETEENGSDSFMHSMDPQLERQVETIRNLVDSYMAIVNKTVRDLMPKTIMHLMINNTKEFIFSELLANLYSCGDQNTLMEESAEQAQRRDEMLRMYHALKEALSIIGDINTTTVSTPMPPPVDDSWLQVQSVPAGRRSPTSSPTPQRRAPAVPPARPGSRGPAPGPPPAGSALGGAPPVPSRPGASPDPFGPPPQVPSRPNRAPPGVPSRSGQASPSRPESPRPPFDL
Assay: Inhibition of dynamin 1-mediated synaptic vesicle endocytosis in Sprague-Dawley rat synaptosomes assessed as uptake of FM 4-64 dye after 30 mins by automated acquisition and analysis system
Type: subcellular, Brain
Conditions: read-out: IC50
MEASURED ATTRIBUTE: IC50 (µM)
Please state the figure in µM; there is no need to write the unit.

[in] Entry `O=C(Nc1cc(Cl)ccc1C(=O)O)c1ccc2c(c1)C(=O)N(c1ccc(CO)cc1)C2=O` has what IC50?
[out] 690

[in] Entry `O=C(Nc1cc(Cl)ccc1C(=O)O)c1ccc2c(c1)C(=O)N(c1cccc([N+](=O)[O-])c1)C2=O` has what IC50?
[out] 12.9

[in] Entry `O=C(Nc1cc(Cl)ccc1C(=O)O)c1ccc2c(c1)C(=O)N(c1ccccc1O)C2=O` has what IC50?
[out] 119
